system: NCI-H23 lung; test: NCI-60 one-dose screen, 48 h; conditions: 10 µM unless noted
This is part of a sample that, as a whole, favours compounds with a hit. Of some 83,000 tested, about 20% had one in any assay. Activity calls are given as the source filed them. How the source made its calls: active means growth percent below 10; inactive means the rest.
Write down the outcome that applies. Available outcomes: active, inactive

Record request — test call for Cc1c[n+](Cc2ccc3ccccc3c2)cn1Cc1ccc2ccccc2c1
inactive

O=C1C(Cl)=C(Nc2ccc(S(=O)(=O)N3CCOCC3)cc2)C(=O)c2ccccc21 , same question.
inactive

NC(Cc1ccc(O)c([N+](=O)[O-])c1)C(=O)O (centres undefined) , same question.
inactive

COc1ccc(-c2cc(-c3cc(OC)c(OC)c(OC)c3)c(C#N)c(=O)n2CCCCC(=O)NO)cc1 , same question.
inactive

CCOc1nc(-c2ccccc2)cc2c(O)c(C(=O)N/N=C/c3ccccc3)[nH]c(=O)c12 , same question.
inactive

COC1=CC(c2ccc[nH]2)=N/C1=C\c1[nH]c(C)c(CC(=O)OCc2ccccc2)c1CCC(=O)OCc1ccccc1 , same question.
active

COC1=CC(c2ccc[nH]2)=N/C1=C\c1[nH]c(C)c(CC(=O)NCc2ccccc2)c1C , same question.
inactive

C/C(=N\O)c1ccc(Cl)cc1 , same question.
inactive

CC1CCN(S(=O)(=O)c2ccc(S(=O)(=O)N3CCCC(c4nc5c(nnn5Cc5cccc(Cl)c5)c(=O)[nH]4)C3)cc2)CC1 (centres undefined) , same question.
inactive

COc1ccc(Nc2nnc(-c3ccc(OC)c(OC)c3)o2)cc1 , same question.
inactive

CCn1cc(C(=O)O)c(=O)c2cc(F)c(N3CCN(CC(=O)Nc4ccc(S(=O)(=O)Nc5nccc(C)n5)cc4)C(C)C3)c(F)c21 (centres undefined) , same question.
inactive

O=C1c2ccccc2-c2c1c1c(=O)[nH]c3ccccc3c1n2Cc1ccccc1 , same question.
inactive

COc1ccc(CNc2c3ccccc3nc3ccccc23)cc1 , same question.
inactive

CC(C)Cn1cnc2c(=O)[nH]c(N)nc21 , same question.
inactive

NC(=O)c1cccc(-n2ccc3cc(NC(=O)c4ccc(N5CCOCC5)c(C(F)(F)F)c4)ccc32)n1 , same question.
inactive

O=C(Nc1ccc(Oc2cccc(Cl)c2)c(Cl)c1)c1cccnc1 , same question.
inactive

CCC(C(=O)[C@@H](C)[C@@H](O)[C@H](C)[C@@H]1O[C@@H]([C@@H](CC)C(=O)ONC(=O)c2ccccc2)CC[C@@H]1C)[C@H]1O[C@]2(C=CC(=O)[C@]3(CC[C@@](C)([C@H]4CC[C@](O)(CC)[C@H](C)O4)O3)O2)[C@H](C)C[C@@H]1C (some centres undefined) , same question.
active

Cc1ccc(NC(=O)c2sc3nc(C)c(Br)c(C)c3c2N)cc1 , same question.
inactive

CC1=C([Se]CC(OC(=O)CC[Se]c2ccccc2)C(=O)NC(C)(C)C)C(=O)c2ccccc2C1=O (centres undefined) , same question.
active

====

system: MCF7 breast; assay: NCI-60 one-dose screen, 48 h; conditions: 10 µM unless noted
About 83,000 compounds went through this panel and 20% of them were active in at least one assay; those are over-represented in the sample as a whole. The source made the active and inactive calls. The calls were made as follows: active = growth percent below 10; inactive = the rest.
Write down the outcome that applies. Available outcomes: 1 (yes) (active), 0 (no) (inactive)

Record request — test call for CCCCCOC(=O)c1c(C)[nH]c(/C=C2\N=C(c3ccc[nH]3)C=C2OC)c1C
1 (yes)

NC(=O)C(=O)c1ccccc1NC=O , same question.
0 (no)

Nc1nc(N)c(-c2ccc(Cl)c(Cl)c2)c(CBr)n1 , same question.
0 (no)

Cn1ccnc1C(=O)/C=C/c1ccc(CC(=O)Nc2cc(C(F)(F)F)cc(C(F)(F)F)c2)cc1 , same question.
0 (no)

COCCOc1cc2ncnc(N3CCN(c4ncc(S(=O)(=O)N5CCCCC5)cn4)CC3)c2cc1OCCOC , same question.
0 (no)

OCCn1cc(-c2nc(-c3c[nH]c4ncccc34)cs2)c2ccccc21 , same question.
0 (no)

CCOC(=O)c1cc2c(n1Cc1cc(OC)c(OC)c(OC)c1)-c1nc(N)sc1CCC2 , same question.
0 (no)
